test system: human Pan T cells; assay: Human Pan T cell IL-2 ELISA; format: cell-based; settings: Homo sapiens, T-cell, 48 h, Anti-CD3 and Anti-CD28, supernatant IL-2 ELISA, read-out: IL-2 release, EC50
pEC50: −log10 of the molar value.
measure name: pEC50

[[record]]
molecule = "COc1cccc2c(-c3cc4c(c5c3CNC5=O)Nc3ccc(N5CCOCC5)cc3C4(C)C)cnn12 [Example 18]"
system_name = "human Pan T cells"
recorded_measurement = 7.93

[[record]]
molecule = "Cn1c(-c2cc3c(c4c2CNC4=O)Nc2ccc(N4CCOCC4)cc2C3(C)C)cnc1C1CC1 [Example 68]"
system_name = "human Pan T cells"
recorded_measurement = 7.68

[[record]]
molecule = "CC1(C)c2cc(N3CCOCC3)ccc2Nc2c1cc(-c1cnc3c(C4COC4)nccn13)c1c2C(=O)NC1 [Example 188]"
system_name = "human Pan T cells"
recorded_measurement = 7.14


a = COc1ccn2c(-c3cc4c(c5c3CNC5=O)Nc3ccc(N5CCOCC5)cc3C4(C)C)cnc2n1 [Example 189]
b = COCC1(O)CCN(c2ccc3c(c2)C(C)(C)c2cc(-c4cnc5n4CCCC5OC)c4c(c2N3)C(=O)NC4)CC1 (single isomer, unassigned) [Example 231]
Lab log: flag the item ( a or b ) with the smaller pEC50 figure. State the label of the item chosen. b
(b: 7.98, a: 8.24)

a = CC(C)(O)c1ccn2c(-c3cc4c(c5c3CNC5=O)Nc3ccc(N5CCOCC5)cc3C4(C)C)cnc2c1 [Example 208]
b = CC1(C)c2cc(N3CCOCC3)ccc2Nc2c1cc(-c1cnn3cc(C#N)ccc13)c1c2C(=O)NC1 [Example 237]
c = CC1(C)c2cc(N3CCOCC3)ccc2Nc2c1cc(-c1cnc3c(N4CCC4)nccn13)c1c2C(=O)NC1 [Example 211]
Reorder the items by pEC50, least to greatest. Response format: the labels, sorted as the prompt asks. c, a, b

1 = CC1(C)c2cc(N3CCOCC3)ccc2Nc2c1cc(-c1cnc3n1CCCC3)c1c2C(=O)NC1 [Example 48]
2 = COc1ccn2c(-c3cc4c(c5c3CNC5=O)Nc3ccc(N5CCOCC5)cc3C4(C)C)cnc2c1 [Example 186]
3 = CC1(C)c2cc(N3CCOCC3)ccc2Nc2c1cc(-c1cnc3cc(F)ccn13)c1c2C(=O)NC1 [Example 62]
Ascending sort, pEC50. API: response body holds the labels in the requested order. 1, 2, 3
(1: 7.87, 2: 8.10, 3: 8.52)
